Experiment: Differential scanning calorimetry (DSC), enthalpy of melting
Assay type: physicochemical
Details: 40-400° C., 10° C. per minute, initial heating curve
Readout: Melting ΔHmelt (kcal/mol)

Molecule	Unit Annotation	Melting ΔHmelt
NC(=O)N1c2ccccc2C=Cc2ccccc21 [CBZ, carbamazepine]	kcal/mol	6.33
COc1ccc2c(c1)c(CC(=O)O)c(C)n2C(=O)c1ccc(Cl)cc1	kcal/mol	8.01
O=C1NS(=O)(=O)c2ccccc21	kcal/mol	8.68
O=C(O)CCC(=O)O	kcal/mol	7.89

---

Experiment: Thermogravimetric analysis (TGA), enthalpy of sublimation from Arrhenius plot of mass loss rate
Type: physicochemical
Details: lower temperature of sublimation range
Readout: Sublimation Tlow (°C)

Consider the following illustrative entries.
Compound	Unit Annotation	Sublimation Tlow
COc1ccc2c(c1)c(CC(=O)O)c(C)n2C(=O)c1ccc(Cl)cc1 [IND, indomethacin]	°C	200
NC(=O)N1c2ccccc2C=Cc2ccccc21 [CBZ, carbamazepine]	°C	220

I: O=C1NS(=O)(=O)c2ccccc21 [SAC, saccharine]
II: O=C(O)CCC(=O)O [SUC, succinic acid]
In: So which one has the bigger Sublimation Tlow here, I or II ? Please reply using the label of the selected record.
Out: I

---

Experiment: Thermogravimetric analysis (TGA), enthalpy of sublimation from Arrhenius plot of mass loss rate
Type: physicochemical
Details: 25-400° C., 10° C. per minute, slope of log mass loss rate versus 1000/T
Readout: Sublimation ΔHsub (kcal/mol)

a: O=C1NS(=O)(=O)c2ccccc21 [SAC, saccharine]
b: NC(=O)N1c2ccccc2C=Cc2ccccc21 [CBZ, carbamazepine]
In: Param metric = Sublimation ΔHsub; output whichever of a , b has the minimum value. Please reply using the label of the selected record.
Out: a

---

Experiment: Thermogravimetric analysis (TGA), enthalpy of sublimation from Arrhenius plot of mass loss rate
Format: physicochemical
Details: upper temperature of sublimation range
Readout: Sublimation Thigh (°C)

Molecule	Sublimation Thigh [°C]
O=C1NS(=O)(=O)c2ccccc21 [SAC, saccharine]	290
O=C(O)CCC(=O)O [SUC, succinic acid]	230
COc1ccc2c(c1)c(CC(=O)O)c(C)n2C(=O)c1ccc(Cl)cc1 [IND, indomethacin]	320
NC(=O)N1c2ccccc2C=Cc2ccccc21 [CBZ, carbamazepine]	280
